# procedure_details: Antiproliferative activity against raf-transformed mouse NIH3T3 cells assessed as inhibition of cell viability
# Format: toxicity, cell-based
measured_parameter: pIC50
Please note pIC50 is a logarithmic value: minus log10 of concentration in mol/L. Answer with that number alone.

IN: Give me measured pIC50, please, for this compound: C#Cc1cccc(Nc2ncnc3cc(OCCOC)c(OCCOC)cc23)c1
OUT: 5.15
